These data points were gathered from PubChem BioAssay AID457.

- run_description: enhancers of VCAM-1 display on endothelial cells, imaging, high-content imaging, pooled HUVEC, TNFa stimulus (AID 457)
- measurement_context: TNFa-induced VCAM-1 immunofluorescence imaging
The campaign covered roughly 10,000 compounds. About 20 (0.2%) were called active. A selection follows.

>  <compound>
O=C(CN1CCC(n2nnc3ccccc32)CC1)Nc1ccc2c(c1)CCC2

>  <outcome>
inactive

$$$$
>  <compound>
O=C(Nc1ccccc1)c1cnc2n(c1=O)CCS2

>  <outcome>
inactive

$$$$
>  <compound>
O=C(Cc1c(F)cccc1Cl)Nc1ccncc1

>  <outcome>
inactive

$$$$
>  <compound>
Cc1cc(NC(=O)CCC(=O)N(c2cccnc2)C(C(=O)NC2CCCC2)c2ccccc2F)no1 (stereo unspecified)

>  <outcome>
inactive

$$$$
>  <compound>
COc1ccc(-c2nnc(SCC#N)o2)cc1

>  <outcome>
inactive

$$$$
>  <compound>
O=C(Nc1cnn(C23CC4CC(CC(C4)C2)C3)c1)c1cnn2c(C(F)(F)F)cc(-c3ccco3)nc12

>  <outcome>
inactive

$$$$
>  <compound>
Cn1c(=O)c2ncn(CC(=O)NCCOc3ccc(C(C)(C)C)cc3)c2n(C)c1=O

>  <outcome>
inactive

$$$$
>  <compound>
COc1ccccc1OCCn1c(=O)sc2ccccc21

>  <outcome>
inactive

$$$$
>  <compound>
CCNC(=O)N(C)c1nncnc1C(=O)NC

>  <outcome>
inactive

$$$$
>  <compound>
COc1ccc(S(=O)(=O)NC2CCCCC2)c(C)c1C

>  <outcome>
inactive

$$$$
>  <compound>
O=C(CSc1ncc(-c2ccc(F)cc2)[nH]1)N1CCCCC1

>  <outcome>
inactive

$$$$

###

- run_description: enhancers of VCAM-1 display on endothelial cells, imaging, high-content imaging, pooled HUVEC, TNFa stimulus (AID 457)
- measurement_context: TNFa-induced VCAM-1 immunofluorescence imaging
Hit rate of the full screen: of about 10,000 compounds, about 20 (0.2%) were called active. A selection follows.

>  <compound>
O=C(Nc1ccc(O)cc1)C1CCCN1S(=O)(=O)c1ccc(F)cc1 (stereo not given)

>  <outcome>
inactive

$$$$
>  <compound>
CCN(CC)S(=O)(=O)c1cccc(-c2nnc(SCC(N)=O)n2CCc2ccccc2)c1

>  <outcome>
inactive

$$$$
>  <compound>
O=C(O)CC(NC(=O)c1ccccc1NC(=O)c1ccccc1)C(=O)O (stereo not given)

>  <outcome>
inactive

$$$$
>  <compound>
Cc1cc(C)n(S(=O)(=O)c2cc(C(=O)O)c(Cl)cc2Cl)n1

>  <outcome>
inactive

$$$$
>  <compound>
CCOc1ccc2cc(C#N)c(SCC(=O)N3CCC(C)CC3)nc2c1

>  <outcome>
inactive

$$$$
>  <compound>
Cc1cccc(N(CC(=O)Nc2ccc(CC#N)cc2)S(C)(=O)=O)c1

>  <outcome>
inactive

$$$$
>  <compound>
COC(=O)C1=C(C)OC(N)=C(C#N)C1c1c(C)nn(-c2ccccc2)c1Cl (stereo not given)

>  <outcome>
inactive

$$$$
>  <compound>
Cc1cc2ncn(S(=O)(=O)c3ccc(S(=O)(=O)N4CCOCC4)cc3)c2cc1C

>  <outcome>
inactive

$$$$
>  <compound>
CCC(=O)N1CCc2cc(Br)cc(S(=O)(=O)C3(C(=O)OC)CC3)c21

>  <outcome>
inactive

$$$$
>  <compound>
O=C(Nc1ccccc1Cl)c1c(F)c(F)c(F)c(F)c1F

>  <outcome>
inactive

$$$$

###

- run_description: enhancers of VCAM-1 display on endothelial cells, imaging, high-content imaging, pooled HUVEC, TNFa stimulus (AID 457)
- measurement_context: TNFa-induced VCAM-1 immunofluorescence imaging
Screen size: about 10,000 compounds; about 20 (0.2%) were called active. Not all results are given here.

>  <compound>
Cc1cc(NC(=O)C23CCC(C)(c4nc5cc(Cl)c(Cl)cc5nc42)C3(C)C)no1 (stereo not drawn)

>  <outcome>
inactive

$$$$
>  <compound>
O=C(CCCN1C(=O)c2ccccc2C1=O)NCc1cccnc1

>  <outcome>
inactive

$$$$
>  <compound>
O=c1c2cnn(-c3ccccc3)c2ncn1/N=C/c1ccncc1

>  <outcome>
inactive

$$$$
